Molecular target: Cannabinoid receptor 2 (Homo sapiens)
Experiment: Displacement of [3H]CP 55940 from human CB2 receptor in cell free system
Settings: read-out: Ki
pKi: −log10 of the molar value.
Listed here: items and their measured pKi.
VALUE_TYPE: pKi

- COMPOUND: "Cc1nc(C(=O)NC23CC4CC(CC2C4)C3)c(C)n1-c1ccccc1"
  RECORDED_MEASUREMENT: 8.01
- COMPOUND: "CCCCCCC1(c2cc(O)c3c(c2)OC(C)(C)[C@@H]2CC=C(C)C[C@@H]32)CC1(Cl)Cl (stereo not given in full)"
  RECORDED_MEASUREMENT: 8.89
- COMPOUND: "COc1cccc2c(C(=O)C3C(C)(C)C3(C)C)cn(CC3CCOCC3)c12"
  RECORDED_MEASUREMENT: 10.00
- COMPOUND: "C=C1CC[C@@H]2[C@@H](C1)c1c(OC)cc(C(C)(C)CCCCCC)cc1OC2(C)C"
  RECORDED_MEASUREMENT: 7.93
- COMPOUND: "CCCCCCn1cc(C(=O)NC2CCCCC2)c(=O)c2ccc(C)nc21"
  RECORDED_MEASUREMENT: 8.10

----------
Biological target: Cannabinoid receptor 2 (Homo sapiens, UniProt P34972)
Sequence (P34972 whole entry): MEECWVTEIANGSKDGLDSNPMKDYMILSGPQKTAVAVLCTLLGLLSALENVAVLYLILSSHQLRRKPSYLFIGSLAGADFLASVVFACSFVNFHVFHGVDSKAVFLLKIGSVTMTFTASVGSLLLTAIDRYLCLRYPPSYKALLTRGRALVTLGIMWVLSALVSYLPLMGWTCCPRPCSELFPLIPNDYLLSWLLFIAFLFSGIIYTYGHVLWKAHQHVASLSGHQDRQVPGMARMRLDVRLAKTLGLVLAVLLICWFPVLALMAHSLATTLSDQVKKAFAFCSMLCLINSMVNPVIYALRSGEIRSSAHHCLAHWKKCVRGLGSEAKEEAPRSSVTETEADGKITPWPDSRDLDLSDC
Assay: Displacement of [3H]CP 55940 from human CB2 receptor in cell free system
Details: read-out: pKi (converted)
Below, each entry is listed with its recorded Ki.
VALUE_TYPE: Ki (nM)

- GIVEN_SMILES: "CCCCC/C=C\\C/C=C\\C/C=C\\C/C=C\\CCCC(=O)N[C@H]1C[C@@H]1O"
  TARGET_OR_TEST_SYSTEM: "Cannabinoid receptor 2 (Homo sapiens, UniProt P34972)"
  UNIT: "nM"
  RECORDED_MEASUREMENT: 191
- GIVEN_SMILES: "O=S(=O)(CCCC(F)(F)F)Oc1cccc(Oc2cccc3c2C[C@H](CO)C3)c1"
  TARGET_OR_TEST_SYSTEM: "Cannabinoid receptor 2 (Homo sapiens, UniProt P34972)"
  UNIT: "nM"
  RECORDED_MEASUREMENT: 4.27
- GIVEN_SMILES: "CCCCCCNC(=O)c1cn(CCCCC)c2ccc(Br)cc2c1=O"
  TARGET_OR_TEST_SYSTEM: "Cannabinoid receptor 2 (Homo sapiens, UniProt P34972)"
  UNIT: "nM"
  RECORDED_MEASUREMENT: 891
- GIVEN_SMILES: "CCCCCn1cc(C(=O)NC23CC4CC(CC(C4)C2)C3)c(=O)c2cc(-c3c(C)noc3C)ccc21"
  TARGET_OR_TEST_SYSTEM: "Cannabinoid receptor 2 (Homo sapiens, UniProt P34972)"
  UNIT: "nM"
  RECORDED_MEASUREMENT: 102
- GIVEN_SMILES: "COc1ccc(-c2oc3cc(OC)ccc3c2C(=O)c2ccc(C#N)cc2)cc1"
  TARGET_OR_TEST_SYSTEM: "Cannabinoid receptor 2 (Homo sapiens, UniProt P34972)"
  UNIT: "nM"
  RECORDED_MEASUREMENT: 14800

----------
Some compounds, each annotated with its measured log10(Ki).
Target: Cannabinoid receptor 2 (Homo sapiens)
Test: Displacement of [3H]CP 55940 from human CB2 receptor in cell free system
Settings: read-out: Ki
VALUE_TYPE: log10(Ki) (log10 of the value in nM)

- COMPOUND: "CCCCCCC1(c2cc(O)c3c(c2)OC(C)(C)[C@@H]2CC=C(C)C[C@@H]32)CC1"
  log10(Ki): -0.05
- COMPOUND: "COCCn1c(C)c(C)s/c1=N\\C(=O)C1C(C)(C)C1(C)C"
  log10(Ki): -0.19
- COMPOUND: "COCCn1c(C)c(C(C)(C)C)s/c1=N\\C(=O)c1ccc(C(F)(F)F)cc1"
  log10(Ki): 1.00
- COMPOUND: "CCC(C)(C)C(=O)Cc1cc(C)c(C)c(S(=O)(=O)N2CCCCCC2)c1"
  log10(Ki): 0.95
- COMPOUND: "Cc1ccc2c(c1)Cc1c(C(=O)NN3CCCCC3)nn(-c3ccc(Cl)cc3Cl)c1-2"
  log10(Ki): -1.40
- COMPOUND: "CCCCCn1c(C)c(C(=O)c2ccc(CCCC)c3ccc(C)cc23)c2ccccc21"
  log10(Ki): 0.81
- COMPOUND: "CCC1CCC(C(=O)c2cn(CCN3CCOCC3)c3ccccc23)CC1 (centres undefined)"
  log10(Ki): 1.20
- COMPOUND: "CCCCCn1cc(C(=O)NC2C(C)(C)[C@@H]3CC[C@@]2(C)C3)c(=O)c2cc(-c3ccco3)ccc21 (some centres undefined)"
  log10(Ki): 0.38
- COMPOUND: "CCCCCCC1(c2cc(O)c3c(c2)OC(C)(C)[C@@H]2CC=C(C)C[C@@H]32)OCCO1"
  log10(Ki): -0.70

----------
Molecular target: Cannabinoid receptor 2 (Homo sapiens)
Assay: Displacement of [3H]CP 55940 from human CB2 receptor in cell free system
Details: read-out: Ki
Rule: Ki below 6 nM gives criterion met. Equal to or above 6 nM gives criterion not met.

- COMPOUND: "Cc1c(C(C)(C)C)s/c(=N\\C(=O)c2ccc(OC(F)(F)F)cc2)n1CC1CC1"
  CLASS_ASSIGNMENT: "criterion met"
- COMPOUND: "CC1=CC[C@@H]2[C@@H](C1)c1c(OC(=O)CCCN3CCOCC3)cc(C(C)(C)CCCCC#N)cc1OC2(C)C"
  CLASS_ASSIGNMENT: "criterion not met"
- COMPOUND: "CC1(C)C(C(=O)c2cn(CC3CCOCC3)c3cc(-c4ccccc4)ccc23)C1(C)C"
  CLASS_ASSIGNMENT: "criterion met"
- COMPOUND: "Cc1c(C(C)(C)C)s/c(=N\\S(=O)(=O)c2cccc3ccccc23)n1C1CC1"
  CLASS_ASSIGNMENT: "criterion not met"
- COMPOUND: "Cc1ccc(C(=O)NC2C(C)(C)[C@@H]3CC[C@]2(C)C3)cc1S(=O)(=O)N1CCOCC1 (some centres undefined)"
  CLASS_ASSIGNMENT: "criterion met"
- COMPOUND: "CCC(C)(C)C(=O)Cc1cc(C)c(C)c(S(=O)(=O)N2CCCCC2)c1"
  CLASS_ASSIGNMENT: "criterion met"
- COMPOUND: "CCCCCCC1CCCc2c1cc1c(c2O)[C@@H]2CC(C)=CC[C@H]2C(C)(C)O1 (some centres undefined)"
  CLASS_ASSIGNMENT: "criterion met"
- COMPOUND: "CC1(C)C(C(=O)c2cn(CC3CCOCC3)c3ccc(N)cc23)C1(C)C"
  CLASS_ASSIGNMENT: "criterion not met"
- COMPOUND: "CCCCCn1c(C)c(C(=O)c2ccc(CCC)c3ccccc23)c2ccccc21"
  CLASS_ASSIGNMENT: "criterion met"

----------
Organism: Homo sapiens
Assay: Selectivity ratio of Ki for human CB1 to Ki for human CB2
VALUE_TYPE: log(ratioKi)

- MOLECULE: "CCCCCCC1CCCc2c1cc1c(c2O)[C@@H]2CC(C)=CC[C@H]2C(C)(C)O1 (some centres undefined)"
  RECORDED_MEASUREMENT: 0.6
- MOLECULE: "Cc1c(C(=O)NC2CCCCC2)nn(-c2ccc(Cl)c(Cl)c2)c1-n1cccc1"
  RECORDED_MEASUREMENT: 0.52
- MOLECULE: "CCCCCn1c(C)c(C(=O)c2ccc(CCCC)c3ccc(C)cc23)c2ccccc21"
  RECORDED_MEASUREMENT: 0.81
- MOLECULE: "CCCCCn1cc(C(=O)NC23CC4CC(CC(C4)C2)C3)c(=O)c2cc(I)ccc21"
  RECORDED_MEASUREMENT: 2.01
- MOLECULE: "Cc1c(C(C)(C)C)s/c(=N\\C(=O)c2ccc(Br)cc2)n1CC1CC1"
  RECORDED_MEASUREMENT: 1.6
- MOLECULE: "CCCCCn1cc(C(=O)NC23CC4CC(CC(C4)C2)C3)c(=O)c2cc(-n3ccnc3)ccc21"
  RECORDED_MEASUREMENT: 3.1
- MOLECULE: "N#Cc1c(Oc2cccc(OS(=O)(=O)CCCC(F)(F)F)c2)cccc1C(F)(F)F"
  RECORDED_MEASUREMENT: 0.03
- MOLECULE: "CCCCCCC1(c2cc(O)c3c(c2)OC(C)(C)[C@@H]2CC=C(C)C[C@@H]32)CC1"
  RECORDED_MEASUREMENT: 0.07
- MOLECULE: "Cc1ccc(-c2nc(CC(C)(C)C)cs2)cc1S(=O)(=O)N1CCOCC1"
  RECORDED_MEASUREMENT: 1.58
- MOLECULE: "C=C1CC[C@@H]2[C@@H](C1)c1c(OC)cc(C(C)(C)CCCCCC)cc1OC2(C)C"
  RECORDED_MEASUREMENT: 2.26
- MOLECULE: "CCc1nc(C(=O)NC23CC4CC(CC(C4)C2)C3)c(C)n1-c1ccccc1"
  RECORDED_MEASUREMENT: 3.41
- MOLECULE: "Cc1ccc(-c2nc(CC3CCCCC3)cs2)cc1S(=O)(=O)N1CCOCC1"
  RECORDED_MEASUREMENT: 1.22
- MOLECULE: "Cc1ccc(NC(=O)C2C(C)(C)C2(C)C)cc1S(=O)(=O)N1CCOCC1"
  RECORDED_MEASUREMENT: 2.16
- MOLECULE: "CCCCCn1cc(C(=O)NC23CC4CC(CC(C4)C2)C3)c(=O)c2cc(-c3cc(C)c(OC)c(C)c3)ccc21"
  RECORDED_MEASUREMENT: 1.38
- MOLECULE: "COCCn1cc(C(=O)C2C(C)(C)C2(C)C)c2ccccc21"
  RECORDED_MEASUREMENT: 2.35
- MOLECULE: "CCCCc1c(C(=O)NC23CC4CC(CC(C4)C2)C3)nc(C)n1-c1ccccc1"
  RECORDED_MEASUREMENT: 2.3
- MOLECULE: "Cc1ccc(C(=O)NC(C(C)(C)C)C(C)(C)C)cc1S(=O)(=O)N1CCOCC1"
  RECORDED_MEASUREMENT: 0.95
- MOLECULE: "CCCCCn1cc(C(=O)NC23CC4CC(CC(C4)C2)C3)c(=O)c2cc(-c3ccco3)ccc21"
  RECORDED_MEASUREMENT: 4.15
- MOLECULE: "CCCC(C)(C)c1ccc2c(c1)OC(C)(C)[C@@H]1CC=C(C)C[C@@H]21"
  RECORDED_MEASUREMENT: 2.3
